Each recorded value in this set is attributed to PubChem BioAssay (NCI).

System: MOLT-4 leukemia
Assay details: NCI tumour cell line growth inhibition, 48 h
# maps each entry to its GI50
Measurement type: GI50

Molecule | Measurement type | Measurement
C1CN(SSN2CCOCC2)CCO1 | GI50 | 47.3 µM
Cn1cc(C2=C(c3cccc(OCC(O)CO)c3)C(=O)NC2=O)c2ccccc21 (centres undefined) | GI50 | > 25 µM
Cc1c2c(nn1C)CSCc1cc(n(C)n1)CSc1cc(c3ccccc3c1)OCCCc1c(C(=O)O)n(C)c3c-2c(Cl)ccc13 | GI50 | 0.448 µM
O=C(NN1C(=O)CSC12CCCC2)c1[nH]c2ccc(Br)cc2c1-c1ccccc1 | GI50 | 21.9 µM
COC(=O)c1cc2ccc(OC(C)=O)c(OC(C)=O)c2cn1 | GI50 | 2.22 µM
Cc1ccc(S(=O)(=O)Nc2cccc3[nH]c(C(F)(F)F)nc23)cc1 | GI50 | 0.605 µM
O=C(/C=C/c1ccc([N+](=O)[O-])cc1)c1ccc2c3c(cccc13)CC2 | GI50 | 1.27 µM
COc1ccc(/C=C2\CCCC3=C2NC(N)=NC3c2ccc(OC)c(OC)c2)cc1OC (centres undefined) | GI50 | 4.04 µM
O=C(Nc1ccc(Cl)cc1)Nc1ccc(Nc2nncc3ccccc23)cc1 | GI50 | 2.09 µM

----------
# maps each entry to its TGI
Test system: COLO 205 colon
Assay details: NCI tumour cell line growth inhibition, 48 h

Compound | TGI
Cn1cc(C2=C(c3cccc(OCC(O)CO)c3)C(=O)NC2=O)c2ccccc21 (configuration not stated) | > 25 µM
O=C(Nc1nc2ccccc2s1)c1cc([N+](=O)[O-])ccc1Cl | > 100 µM
COc1cc([C@H]2OC[C@H]3[C@@H]2CO[C@@H]3c2cc(OC)c3c(c2)OCO3)cc(OC)c1OC | > 100 µM
Nc1[nH]nc2nc(-c3cccs3)cc(C(F)(F)F)c12 | > 25 µM
Cc1ccc(C)c(NC(=O)CC/C(=N\NC(=O)c2c(O)ccc3ccccc23)C(C)C(=O)c2ccc(O)cc2)c1 (configuration not stated) | 51.3 µM
CN1c2ccccc2N(C)C23N(C)c4ccccc4N(C)C12N(C)c1ccccc1N3C (configuration not stated) | > 100 µM
O=C(Nc1ccc(Cl)cc1)Nc1ccc(Nc2nncc3ccccc23)cc1 | 9.58 µM
CCCCN(CCCC)c1ccc(C(=N)c2ccc(N(CCCC)CCCC)cc2)cc1 | 1.05 µM
C(CCCCc1nnc(N2CCCCC2)o1)CCCc1nnc(N2CCCCC2)o1 | > 100 µM
CC1(C)C2C=CC1(C)C1(CC2)OCCO1 (configuration not stated) | > 100 µM
CCc1ccc(NC(=O)COC(=O)c2cc([N+](=O)[O-])ccc2Sc2nnnn2C)cc1 | 33.8 µM
C1=C2/CC[C@H](Sc3ccccc3)[C@H]2C2(CCCCC/1)OCCO2 | 38.2 µM
N#CC(c1nc2ccccc2nc1Cl)S(=O)(=O)c1ccccc1 (configuration not stated) | > 100 µM
Cc1ccc(CNc2c3ccccc3nc3cc(NC(=O)CCN4CCCC4)ccc23)cc1 | 1.62 µM
COc1ccc(OC)c2c1C(=O)C1CC1(Br)C2=O (configuration not stated) | > 100 µM
O=C(O)c1ccn(-c2cccc(-n3ccc(C(=O)O)n3)n2)n1 | > 100 µM
COC(=O)C1=CC2C(=O)OC1CC2C#N (configuration not stated) | > 100 µM
COc1ccc(C(=O)C(c2ccc(OC)cc2)C2(O)C(=O)Nc3c2ccc(Cl)c3C)cc1 (configuration not stated) | > 100 µM
CCSCCCN(CCCSCC)CCCSCC | > 100 µM
CC1=NN(c2nc(N)nc(/C(C#N)=C/c3cccn3-c3cc(Cl)cc(Cl)c3)n2)C(C)(C)C1 | > 100 µM
COc1ccc(-n2c(=O)n(C)c(=O)n2-c2ccc(OC)cc2)cc1 | > 100 µM
COc1ccc2c(c1)c(CC(=O)O)c(C)n2C(=O)c1ccc(Cl)cc1 | > 100 µM
